Would you kindly list Residual rate for each of these compounds?
Assay: Evaluation of conversion rate to active form in buffer solution (Experimental Example 1)
Assay type: physicochemical
Conditions: pH7.4, 1 hr
# value in %; strip the unit string

Q. Bench note: what Residual rate did CCC(=O)O[C@@H]1CN(C)CC[C@@H]1c1c(O)cc(O)c2c(=O)cc(-c3ccccc3Cl)oc12 show?
A. 95.1

Q. # input compound: CCCCCCC(=O)O[C@@H]1CN(C)CC[C@@H]1c1c(O)cc(O)c2c(=O)cc(-c3ccccc3Cl)oc12 [Comparative Example 11, reference compound] ; wanted: its Residual rate
A. 91.8

Q. Query: Residual rate; subject: CN1CC[C@H](c2c(O)cc(O)c3c(=O)cc(-c4ccccc4Cl)oc23)[C@H](OC(=O)[C@@H](N)CO)C1 [Comparative Example 9, reference compound]
A. 70.3
